biological target: Rhodopsin (Bos taurus); assay: Binding affinity to photoactivated rhodopsin in bovine retinal rod outer-segment membranes assessed as induction of extra receptor MII state stabilization by UV/visible difference spectroscopy
Metric: pEC50
Give bare numbers, as −log10 of the molar value.

Prompt line: State its pEC50 on Rhodopsin (Bos taurus): C[C@H]1[C@H](C)CC[C@]2(C(=O)O)CC[C@]3(C)C(=CC[C@@H]4[C@@]5(C)C[C@@H](O)[C@H](O)[C@@](C)(CO)[C@@H]5[C@H](O)C[C@]43C)[C@H]12 [MADECASSIC ACID]
Response line: 3.92

* * *

target: Rhodopsin (Bos taurus, UniProt P02699); assay: Inhibition of bovine retinal rod outer-segment photoactivated rhodopsin-transducer interaction by transducer release assay
Sequence (P02699 whole entry): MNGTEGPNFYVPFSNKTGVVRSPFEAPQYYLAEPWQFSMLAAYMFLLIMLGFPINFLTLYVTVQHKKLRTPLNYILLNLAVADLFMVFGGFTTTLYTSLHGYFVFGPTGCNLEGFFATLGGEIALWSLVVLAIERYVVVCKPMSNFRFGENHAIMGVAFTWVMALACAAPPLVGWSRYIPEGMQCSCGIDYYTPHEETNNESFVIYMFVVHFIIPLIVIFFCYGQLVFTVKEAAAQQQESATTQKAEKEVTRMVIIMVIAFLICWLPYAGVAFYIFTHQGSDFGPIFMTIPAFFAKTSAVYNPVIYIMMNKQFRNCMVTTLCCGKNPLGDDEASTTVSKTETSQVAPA
Metric: pIC50
Give bare numbers, as −log10 of the molar value.

Prompt line: Please give the measured pIC50 for this compound: C[C@H]1[C@H](C)CC[C@]2(C(=O)O)CC[C@]3(C)C(=CC[C@@H]4[C@@]5(C)C[C@@H](O)[C@H](O)[C@@](C)(CO)[C@@H]5[C@H](O)C[C@]43C)[C@H]12 [MADECASSIC ACID]
Response line: 3.74
